Where do these numbers come from? They come from the supplement of paper PMC9112550.

System: Escherichia coli TOP10
Experiment: shrunken log2 fold change of peptide-encoding DNA abundance (4.5 h post-induction vs induction); higher = less antimicrobial activity (less host growth inhibition)
Settings: time post-induction: 4.5 h; library: site-saturation at positions 5, 18, 19, 20
What shrunken log2 fold change was measured for each of the following?

Consider the following items and state reported shrunken log2 fold change for each.
1. RRIRNRPPRLPRPRPRPEHQPRP
2. RRIRTRPPRLPRPRPRPFGMPRP

[-0.029, 0.00903]

----------
Test system: Escherichia coli TOP10
Assay: shrunken log2 fold change of peptide-encoding DNA abundance (4.5 h post-induction vs induction); higher = less antimicrobial activity (less host growth inhibition)
Details: time post-induction: 4.5 h; library: site-saturation at positions 5, 18, 19, 20
What shrunken log2 fold change was measured for each of the following?

Answered examples (5):
>>> result("RRIRSRPPRLPRPRPRPNMMPRP")
-0.166
>>> result("RRIRYRPPRLPRPRPRPFFGPRP")
-0.225
>>> result("RRIRMRPPRLPRPRPRPKYPPRP")
-0.00805
>>> result("RRIRLRPPRLPRPRPRPVREPRP")
0.185
>>> result("RRIRLRPPRLPRPRPRPHYFPRP")
-0.404

Consider the following items and state reported shrunken log2 fold change for each.
1. RRIRERPPRLPRPRPRPGYMPRP
2. RRIRERPPRLPRPRPRPATKPRP
3. RRIRLRPPRLPRPRPRPRERPRP
4. RRIRIRPPRLPRPRPRPDRLPRP
5. RRIRCRPPRLPRPRPRPDQFPRP
6. RRIRWRPPRLPRPRPRPAEFPRP

-0.172
0.156
0.612
-0.453
0.07
0.292

----------
Test system: Escherichia coli TOP10
Experiment: shrunken log2 fold change of peptide-encoding DNA abundance (4.5 h post-induction vs induction); higher = less antimicrobial activity (less host growth inhibition)
Conditions: time post-induction: 4.5 h; library: site-saturation at positions 5, 18, 19, 20
What shrunken log2 fold change was measured for each of the following?
One number for each entry.

Answered examples (2):
>>> result_number("RRIRPRPPRLPRPRPRPGRWPRP")
0.551
>>> result_number("RRIRIRPPRLPRPRPRPVFIPRP")
-0.472

Consider the following items and state reported shrunken log2 fold change for each.
1. RRIRDRPPRLPRPRPRPAKEPRP
2. RRIRGRPPRLPRPRPRPMERPRP

1: 0.0263; 2: 1.36

----------
System: Escherichia coli TOP10
Assay: shrunken log2 fold change of peptide-encoding DNA abundance (4.5 h post-induction vs induction); higher = less antimicrobial activity (less host growth inhibition)
Conditions: time post-induction: 4.5 h; library: site-saturation at positions 5, 18, 19, 20
Respond with Y for shrunken log2 fold change values of -0.2 and above, N for values below.

Example entries begin here.
>>> qualitative_label("RRIRQRPPRLPRPRPRPSMKPRP")
"Y"
>>> qualitative_label("RRIRCRPPRLPRPRPRPAYTPRP")
"N"
>>> qualitative_label("RRIRLRPPRLPRPRPRPVCQPRP")
"Y"
>>> qualitative_label("RRIRFRPPRLPRPRPRPYMIPRP")
"N"
>>> qualitative_label("RRIRTRPPRLPRPRPRPQADPRP")
"N"

Test whether the sequence RRIRIRPPRLPRPRPRPLAMPRP records shrunken log2 fold change of -0.2 or higher.
Y

Test whether the sequence RRIRVRPPRLPRPRPRPDLQPRP records shrunken log2 fold change of -0.2 or higher.
Y

Test whether the sequence RRIRRRPPRLPRPRPRPHYYPRP records shrunken log2 fold change of -0.2 or higher.
Y

----------
Tested on: Escherichia coli TOP10
Assay: shrunken log2 fold change of peptide-encoding DNA abundance (4.5 h post-induction vs induction); higher = less antimicrobial activity (less host growth inhibition)
Conditions: time post-induction: 4.5 h; library: site-saturation at positions 5, 18, 19, 20
parameter: shrunken log2 fold change
Answers are plain numbers.

>>> result_number("RRIRRRPPRLPRPRPRPCYTPRP")
-0.112
>>> result_number("RRIRHRPPRLPRPRPRPWELPRP")
-0.0835
>>> result_number("RRIRARPPRLPRPRPRPMKHPRP")
-0.00244
>>> result_number("RRIRGRPPRLPRPRPRPAWTPRP")
0.619
>>> result_number("RRIRNRPPRLPRPRPRPQNTPRP")
-0.589

Consider the following items and state reported shrunken log2 fold change for each.
1. RRIRWRPPRLPRPRPRPSFAPRP
2. RRIRTRPPRLPRPRPRPWTGPRP
3. RRIRCRPPRLPRPRPRPPWMPRP
4. RRIRWRPPRLPRPRPRPIKTPRP
5. RRIRWRPPRLPRPRPRPHMIPRP
6. RRIRRRPPRLPRPRPRPYANPRP
7. RRIRERPPRLPRPRPRPQEHPRP
8. RRIRCRPPRLPRPRPRPPHHPRP

1: 0.28; 2: -0.352; 3: 0.248; 4: 0.00902; 5: -0.219; 6: -0.0552; 7: -0.179; 8: 0.352

Consider the following items and state reported shrunken log2 fold change for each.
1. RRIRGRPPRLPRPRPRPHEWPRP
2. RRIRERPPRLPRPRPRPWDPPRP

0.116
0.173

----------
Tested on: Escherichia coli TOP10
Assay: shrunken log2 fold change of peptide-encoding DNA abundance (4.5 h post-induction vs induction); higher = less antimicrobial activity (less host growth inhibition)
Conditions: time post-induction: 4.5 h; library: site-saturation at positions 5, 18, 19, 20
parameter: shrunken log2 fold change
Numbers only.

Answered examples (10):
>>> result_number("RRIRSRPPRLPRPRPRPWYTPRP")
0.0361
>>> result_number("RRIRDRPPRLPRPRPRPLMMPRP")
0.0576
>>> result_number("RRIRWRPPRLPRPRPRPAQSPRP")
0.135
>>> result_number("RRIRYRPPRLPRPRPRPPNFPRP")
0.0401
>>> result_number("RRIRERPPRLPRPRPRPLAFPRP")
-0.0552
>>> result_number("RRIRNRPPRLPRPRPRPKAEPRP")
0.153
>>> result_number("RRIRYRPPRLPRPRPRPEGMPRP")
0.0329
>>> result_number("RRIRVRPPRLPRPRPRPSDAPRP")
-0.203
>>> result_number("RRIRMRPPRLPRPRPRPCYAPRP")
-0.105
>>> result_number("RRIRTRPPRLPRPRPRPLQLPRP")
-0.167

Consider the following items and state reported shrunken log2 fold change for each.
1. RRIRRRPPRLPRPRPRPAGYPRP
2. RRIRPRPPRLPRPRPRPNAQPRP
3. RRIRLRPPRLPRPRPRPYCAPRP
4. RRIRWRPPRLPRPRPRPFREPRP
5. RRIRDRPPRLPRPRPRPCFHPRP

-0.269
0.0626
-0.151
-0.105
-0.336

----------
System: Escherichia coli TOP10
Assay: shrunken log2 fold change of peptide-encoding DNA abundance (4.5 h post-induction vs induction); higher = less antimicrobial activity (less host growth inhibition)
Conditions: time post-induction: 4.5 h; library: site-saturation at positions 5, 18, 19, 20
What shrunken log2 fold change was measured for each of the following?
Answers are plain numbers.

Answered examples (4):
>>> result_number("RRIRERPPRLPRPRPRPHKQPRP")
-0.0572
>>> result_number("RRIRTRPPRLPRPRPRPLTCPRP")
-0.809
>>> result_number("RRIRCRPPRLPRPRPRPDMLPRP")
-0.283
>>> result_number("RRIRTRPPRLPRPRPRPKHHPRP")
-0.263

Consider the following items and state reported shrunken log2 fold change for each.
1. RRIRYRPPRLPRPRPRPHYNPRP
2. RRIRYRPPRLPRPRPRPCYCPRP
3. RRIRFRPPRLPRPRPRPMRQPRP
4. RRIRLRPPRLPRPRPRPPDPPRP
5. RRIRQRPPRLPRPRPRPCKFPRP
6. RRIRGRPPRLPRPRPRPARWPRP

1. -1.18
2. -0.185
3. 0.0953
4. 0.584
5. -0.194
6. 0.998

----------
What shrunken log2 fold change was measured for each of the following?
System: Escherichia coli TOP10;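 also: peptides expressed intracellularly from a pBAD plasmid library in pooled LB shake-flask culture, induced with 0.3% L-arabinose, DNA abundance read by NGS, three biological replicates, DESeq2 with apeglm shrinkage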
Test: shrunken log2 fold change of peptide-encoding DNA abundance (4.5 h post-induction vs induction); higher = less antimicrobial activity (less host growth inhibition)
Settings: time post-induction: 4.5 h; library: site-saturation at positions 5, 18, 19, 20

Answered examples (3):
>>> result("RRIRDRPPRLPRPRPRPTGSPRP")
0.0325
>>> result("RRIRERPPRLPRPRPRPPHRPRP")
0.0387
>>> result("RRIRFRPPRLPRPRPRPCFFPRP")
-0.378

Consider the following items and state reported shrunken log2 fold change for each.
1. RRIRIRPPRLPRPRPRPIMEPRP
2. RRIRRRPPRLPRPRPRPCIMPRP
3. RRIRWRPPRLPRPRPRPHIFPRP
4. RRIRRRPPRLPRPRPRPHYIPRP

[-0.216, -0.191, -0.494, -0.662]

Consider the following items and state reported shrunken log2 fold change for each.
1. RRIRGRPPRLPRPRPRPNKTPRP
2. RRIRERPPRLPRPRPRPHMAPRP
3. RRIRTRPPRLPRPRPRPAFCPRP
4. RRIRSRPPRLPRPRPRPSQAPRP
5. RRIRGRPPRLPRPRPRPGIWPRP
6. RRIRNRPPRLPRPRPRPFWMPRP
7. RRIRCRPPRLPRPRPRPYWKPRP

1. -0.0264
2. -0.0803
3. 0.113
4. -0.0295
5. 0.758
6. -0.112
7. -0.737

Reported shrunken log2 fold change for RRIRARPPRLPRPRPRPKPCPRP was 0.162
